Values were extracted from paper PMC11097374.

Test system: MCF-7 cells
Test: MTT assay against human breast cancer cell line MCF-7
Type: cell-based
Conditions: over Wi-38 normal cells
measured parameter: MCF-7 SI (selectivity index)

> print(dat)
                                   compound  measured.value
1    Cc1cc(=O)n2c(C)n[nH]c2n1 [Compound 14]           5.157
2  Cc1cc(=O)n2c(C)nn(CC(=O)N/N=C/c3ccc([N+](=O)[O-])cc3)c2n1 [Compound 19]           3.044
3  COc1ccc(/C=N/NC(=O)CSc2nc(N)c(NC(C)=O)c(=O)[nH]2)cc1 [Compound 9]           4.820
4  CC(=O)Nc1c(N)nc(SCC(=O)NN)[nH]c1=O [Compound 5]           16.02
5  Cc1cc(=O)n2c(C)nn(CC(=O)NN)c2n1 [Compound 16]           1.797
6   CC(=O)Nc1c(N)nc(S)[nH]c1=O [Compound 3]           1.615
7  CC(=O)Nc1c(N)nc(SCC(=O)N/N=C/c2ccccc2O)[nH]c1=O [Compound 10]           4.911

* * *

Quick reference: MCF-7 SI (selectivity index) of the listed items.
System: MCF-7 cells
Assay: MTT assay against human breast cancer cell line MCF-7
Type: cell-based
Settings: over Wi-38 normal cells

compound	MCF-7 SI (selectivity index)
CC(=O)Nc1c(N)nc(SCC(=O)N/N=C/c2ccc(Cl)cc2)[nH]c1=O [Compound 6]	1.555
Cc1cc(=O)n2c(C)nn(CC(=O)N/N=C/c3ccc(Cl)cc3)c2n1 [Compound 17]	1.471
CC(=O)Nc1c(N)nc(SCC(=O)N/N=C/c2ccc([N+](=O)[O-])cc2)[nH]c1=O [Compound 8]	4.883
COC(=O)Cn1nc(C)n2c(=O)cc(C)nc12 [Compound 15]	1.894
Cc1cc(=O)n2c(C)nn(CC(=O)N/N=C/c3ccc(Br)cc3)c2n1 [Compound 18]	14.119
COc1cccc2c1C(=O)c1c(O)c3c(c(O)c1C2=O)C[C@@](O)(C(=O)CO)C[C@@H]3O[C@H]1C[C@H](N)[C@H](O)[C@H](C)O1 [DOX., doxorubicin, reference compound]	1.626
CCOC(=O)CSc1nc(N)c(NC(C)=O)c(=O)[nH]1 [Compound 4]	3.203
Cc1cc(=O)n2c(C)nn(CC(=O)N/N=C/c3ccccc3O)c2n1 [Compound 21]	9.961

* * *

Tested on: Wi-38 normal human lung fibroblast cells
Assay: MTT assay against normal human cell line
Format: cell-based
Conditions: MTT, 72 h; SI calls it EC100, dose at 100% cell viability; mean ± SEM
I'd appreciate it if you marked entries satisfied when Wi-38 IC100 is lower than 0.3 µM and not satisfied when it is not.

> print(dat)
                                   molecule          group
1  CC(=O)Nc1c(N)nc(SCC(=O)N/N=C/c2ccc(Br)cc2)[nH]c1=O [Compound 7]      satisfied
2  Cc1cc(=O)n2c(C)nn(CC(=O)N/N=C/c3ccc([N+](=O)[O-])cc3)c2n1 [Compound 19]  not satisfied
3  CC(=O)Nc1c(N)nc(SCC(=O)N/N=C/c2ccc([N+](=O)[O-])cc2)[nH]c1=O [Compound 8]  not satisfied
4  CCOC(=O)CSc1nc(N)c(NC(C)=O)c(=O)[nH]1 [Compound 4]  not satisfied
5   CC(=O)Nc1c(N)nc(S)[nH]c1=O [Compound 3]      satisfied
6  COc1ccc(/C=N/NC(=O)CSc2nc(N)c(NC(C)=O)c(=O)[nH]2)cc1 [Compound 9]  not satisfied
7  Cc1cc(=O)n2c(C)nn(CC(=O)NN)c2n1 [Compound 16]      satisfied
8  CC(=O)Nc1c(N)nc(SCC(=O)NN)[nH]c1=O [Compound 5]      satisfied
9  CC(=O)Nc1c(N)nc(SCC(=O)N/N=C/c2ccccc2O)[nH]c1=O [Compound 10]      satisfied
